Source: ChEMBL document CHEMBL1152673

- assay.system: 3-isopropylmalate dehydrogenase (Thermus thermophilus, UniProt Q5SIY4)
- Sequence (Q5SIY4 whole entry): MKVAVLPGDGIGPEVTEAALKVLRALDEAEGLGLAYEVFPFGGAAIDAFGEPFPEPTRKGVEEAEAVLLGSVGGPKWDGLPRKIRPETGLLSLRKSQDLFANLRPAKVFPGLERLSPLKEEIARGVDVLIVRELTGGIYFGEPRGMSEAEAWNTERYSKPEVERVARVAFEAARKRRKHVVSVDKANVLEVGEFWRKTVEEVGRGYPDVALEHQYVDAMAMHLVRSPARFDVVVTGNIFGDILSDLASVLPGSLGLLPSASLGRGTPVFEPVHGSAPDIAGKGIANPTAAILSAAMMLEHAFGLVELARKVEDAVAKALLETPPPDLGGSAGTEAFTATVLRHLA
- protocol.summary: Inhibition of Thermus thermophilus HB8 IPMDH assessed as formation of NADH by Lineweaver-Burke plot analysis

{"mol.smiles": "CS[C@H](C(=O)O)[C@@H](O)C(=O)O", "Ki": "62 nM"}
